This section presents molecules with their documented IC50 values.
- Measured Target: Human thrombin (Homo sapiens (Human))
- Protocol Summary: Thrombin protease activity inhibition assay (chromogenic substrate S-2238)
- Type: biochemical
- Study Conditions: 3 nM thrombin, 125 μM S-2238, 10 min pre-incubation, RT

Some molecules with recorded IC50:
Substance Smiles: O=C(c1ccccc1)n1nc(-c2cccn(Cc3cccnc3)c2=O)cc1NCc1ccc(Cl)s1
Measured Target: Human thrombin (Homo sapiens (Human))
IC50: < 100 nM

Substance Smiles: CC1(C(=O)n2nc(-c3cccn(Cc4cccnc4)c3=O)cc2NCc2ccc(Cl)s2)CCOCC1
Measured Target: Human thrombin (Homo sapiens (Human))
IC50: < 100 nM

Substance Smiles: O=C(c1ccc(N2CCOCC2)cc1)n1nc(-c2cccn(CCN3CCOCC3)c2=O)cc1NCc1ccc(Cl)s1
Measured Target: Human thrombin (Homo sapiens (Human))
IC50: < 100 nM

Entry O=C(c1cccs1)n1nc(-c2cccn(Cc3ccsc3)c2=O)cc1NCc1ccc(Cl)s1 : reported IC50 = ?
< 100 nM

Entry O=c1c(-c2cc(NCc3ccc(Cl)s3)[nH]n2)cccn1Cc1ccc2ccccc2c1 : reported IC50 = ?
> 100000 nM

* * *

This section presents compounds with their documented pIC50 values.
- Measured Target: Human thrombin (Homo sapiens (Human))
- Protocol Summary: Thrombin protease activity inhibition assay (chromogenic substrate S-2238)
- Type: biochemical
- Study Conditions: 3 nM thrombin, 125 μM S-2238, 10 min pre-incubation, RT
pIC50: −log10 of the molar value.

Some compounds with recorded pIC50:
Compound: O=C(c1ccco1)n1nc(-c2ccc[nH]c2=O)cc1NCc1ccccc1 [Cmpd 237]
Measured Result: 6.00 to 7.00
--
Compound: Cn1cccc(-c2cc(NCc3ccc(Cl)s3)n(C(=O)c3ccoc3)n2)c1=O [Cmpd 23]
Measured Result: > 7.00
--
Compound: O=C(c1cccc2c1OCCO2)n1nc(-c2cccn(Cc3cccs3)c2=O)cc1NCc1ccc(Cl)s1 [Cmpd 117]
Measured Result: > 7.00
--
Compound: CC(C)(C)C(=O)n1nc(-c2cccn(Cc3ccccc3Cl)c2=O)cc1NCc1ccc(Cl)s1 [Cmpd 27]
Measured Result: > 7.00
--
Compound: O=c1c(-c2cc(NCc3ccc(Cl)s3)[nH]n2)cccn1Cc1ccccn1 [Cmpd 227]
Measured Result: 5.00 to 6.00
--
Compound: Cn1cccc(-c2cc(NCc3ccc(Cl)s3)n(C(=O)c3cccc4c3OCCO4)n2)c1=O [Cmpd 120]
Measured Result: > 7.00
--
Compound: COc1ccccc1C(=O)n1nc(-c2cccn(CCc3ccccc3)c2=O)cc1NCc1ccc(Cl)s1 [Cmpd 134]
Measured Result: > 7.00
--
Compound: O=C(c1ccoc1)n1nc(-c2cccn(Cc3ccoc3)c2=O)cc1NCc1ccc(Cl)s1 [Cmpd 173]
Measured Result: > 7.00
--
Compound: COCCOc1ccc(C(=O)n2nc(-c3ccc[nH]c3=O)cc2NCc2ccc(Cl)s2)cc1 [Cmpd 206]
Measured Result: > 7.00
--
Compound: O=c1c(-c2cc(NCc3ccc(Cl)s3)[nH]n2)cccn1Cc1ccco1 [Cmpd 222]
Measured Result: < 4.00

Entry CC(C)(C)C(=O)n1nc(-c2cccn(Cc3ccoc3)c2=O)cc1NCc1ccc(Cl)s1 [Cmpd 78] : reported pIC50 = ?
> 7.00

Entry COc1ccccc1C(=O)n1nc(-c2cccn(Cc3ccco3)c2=O)cc1NCc1ccc(Cl)s1 [Cmpd 135] : reported pIC50 = ?
> 7.00

Entry COCCn1cccc(-c2cc(NCc3ccc(Cl)s3)n(C(=O)c3ccsc3)n2)c1=O [Cmpd 194] : reported pIC50 = ?
> 7.00
